Origin of measurements: the supplement of paper PMC10307832

Overview of reported relative viability across a group of molecules:
# Tested on: LCLC-97TM1
# TEST_METHOD_NOTES: relative viability (nuclei count vs DMSO), 5 days (fraction); higher = more cells survive
# TEST_CONDITIONS: first compound 0.006325 µM
Just the number, please.

Here's what some known entries look like.
CC(=O)O[C@@]12CO[C@@H]1C[C@H](O)[C@@]1(C)C(=O)[C@H](O)C3=C(C)[C@@H](OC(=O)[C@H](O)[C@@H](NC(=O)OC(C)(C)C)c4ccccc4)C[C@@](O)([C@@H](OC(=O)c4ccccc4)[C@H]21)C3(C)C [Docetaxel] + O=C(CCCCCCC(=O)Nc1ccccc1)NO [Vorinostat] (partner 1 µM) | 0.104
CC(=O)O[C@@]12CO[C@@H]1C[C@H](O)[C@@]1(C)C(=O)[C@H](O)C3=C(C)[C@@H](OC(=O)[C@H](O)[C@@H](NC(=O)OC(C)(C)C)c4ccccc4)C[C@@](O)([C@@H](OC(=O)c4ccccc4)[C@H]21)C3(C)C [Docetaxel] + COc1cccc2cc(-c3nc([C@H]4CC[C@H](C(=O)O)CC4)n4ncnc(N)c34)[nH]c12 [OSI-027] (partner 0.5 µM) | 0.182

Attention now turns to another entry.
Report relative viability, nothing else, for this molecule: CC(=O)O[C@@]12CO[C@@H]1C[C@H](O)[C@@]1(C)C(=O)[C@H](O)C3=C(C)[C@@H](OC(=O)[C@H](O)[C@@H](NC(=O)OC(C)(C)C)c4ccccc4)C[C@@](O)([C@@H](OC(=O)c4ccccc4)[C@H]21)C3(C)C [Docetaxel] + CS(=O)(=O)N1CCN(Cc2cc3nc(-c4cccc5[nH]ncc45)nc(N4CCOCC4)c3s2)CC1 [Pictilisib] (partner 1 µM)
0.112
